Data origin, for the record: paper PMC9323733

- measured_target: UniProt O60341
pIC50: −log10 of the molar value.
readout_name: pIC50

-- ask Returns the measured pIC50 for the input compound. Input: C#CCN[C@@H]1CCc2ccccc21 [rasagiline, reference compound]
-- reply < 4.00

----------
- measured_target: human S1P1 receptor (Homo sapiens)
- Sequence (P21453 whole entry): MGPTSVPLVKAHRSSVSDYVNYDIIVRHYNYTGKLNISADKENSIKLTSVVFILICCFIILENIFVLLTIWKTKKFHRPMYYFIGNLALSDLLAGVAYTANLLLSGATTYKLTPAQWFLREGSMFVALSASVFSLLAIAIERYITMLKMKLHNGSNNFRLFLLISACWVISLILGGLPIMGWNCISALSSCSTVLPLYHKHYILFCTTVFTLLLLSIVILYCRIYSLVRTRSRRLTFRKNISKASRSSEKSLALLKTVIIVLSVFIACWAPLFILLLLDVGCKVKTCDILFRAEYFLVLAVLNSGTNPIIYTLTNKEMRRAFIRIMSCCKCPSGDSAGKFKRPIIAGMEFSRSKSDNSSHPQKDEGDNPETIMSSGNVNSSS
- protocol: CellKey impedance assay in CHO cells, agonistic and antagonistic effect
- protocol_conditions: impedance, vs S1P at 0.01 µM; read-out: IC50, reference antagonist
readout_name: IC50 (µM)
Numbers only, in µM.

-- ask Fill in the blank: the reported IC50 of CCCCCCCCc1cccc(NC(=O)[C@H](N)COP(=O)(O)O)c1 is ____.
-- reply 0.027
